Below, each of the molecules is paired with its reported surface plasmon resonance hMcm10-ID kd value.
Biological target: hMcm10-ID (Homo sapiens, UniProt Q7L590)
Construct: hMcm10-ID (residues 237 to 436) were expressed in E. coli strain BL21(DE3); 6xHis (HRV 3C site) (N, cleaved yes); made in house; host or cells: E. coli BL21(DE3)
Sequence (Q7L590 237-436): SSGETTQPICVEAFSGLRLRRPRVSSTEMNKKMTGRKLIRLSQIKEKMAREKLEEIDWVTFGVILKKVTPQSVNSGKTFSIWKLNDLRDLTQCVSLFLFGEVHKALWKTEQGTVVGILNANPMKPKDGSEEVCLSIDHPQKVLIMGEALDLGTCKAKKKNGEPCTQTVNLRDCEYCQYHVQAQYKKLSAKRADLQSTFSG
Assay: Surface plasmon resonance binding kinetics on immobilized hMcm10-ID (Biacore S200)
Details: 1:1 model, 6000–8000 RU, 25°C
Structures can show the parent of a compound that is named as a salt.
Readout label: surface plasmon resonance hMcm10-ID kd

>  <Molecule>
O=C(Nc1cc(C(=O)Nc2ccc(S(=O)(=O)O)cc2S(=O)(=O)O)cc(C(=O)Nc2ccc(S(=O)(=O)O)cc2S(=O)(=O)O)c1)Nc1cc(C(=O)Nc2ccc(S(=O)(=O)O)cc2S(=O)(=O)O)cc(C(=O)Nc2ccc(S(=O)(=O)O)cc2S(=O)(=O)O)c1

>  <Recorded value>
0.59 ± 0.10 s^−1

$$$$
>  <Molecule>
Cc1nc(/N=N/c2ccc(S(=O)(=O)O)cc2S(=O)(=O)O)c(COP(=O)(O)O)c(C=O)c1O

>  <Recorded value>
0.0013 ± 0.0001 s^−1

$$$$
>  <Molecule>
Cc1ccc(C(=O)Nc2ccc(S(=O)(=O)O)c3cc(S(=O)(=O)O)cc(S(=O)(=O)O)c23)cc1NC(=O)c1cccc(NC(=O)Nc2cccc(C(=O)Nc3cc(C(=O)Nc4ccc(S(=O)(=O)O)c5cc(S(=O)(=O)O)cc(S(=O)(=O)O)c45)ccc3C)c2)c1 [suramin, suramin sodium salt]

>  <Recorded value>
0.16 ± 0.03 s^−1

$$$$
>  <Molecule>
O=C(Nc1cccc(C(=O)Nc2ccc(S(=O)(=O)O)c3cc(S(=O)(=O)O)cc(S(=O)(=O)O)c23)c1)Nc1cccc(C(=O)Nc2ccc(S(=O)(=O)O)c3cc(S(=O)(=O)O)cc(S(=O)(=O)O)c23)c1

>  <Recorded value>
1.6 ± 0.2 s^−1

$$$$
>  <Molecule>
O=C(Nc1cc(C(=O)Nc2ccc(S(=O)(=O)O)cc2)cc(C(=O)Nc2ccc(S(=O)(=O)O)cc2)c1)Nc1cc(C(=O)Nc2ccc(S(=O)(=O)O)cc2)cc(C(=O)Nc2ccc(S(=O)(=O)O)cc2)c1

>  <Recorded value>
0.35 ± 0.19 s^−1

$$$$
>  <Molecule>
O=C(Nc1cccc(C(=O)Nc2cc(C(=O)Nc3ccc(S(=O)(=O)O)c4cc(S(=O)(=O)O)cc(S(=O)(=O)O)c34)ccc2F)c1)Nc1cccc(C(=O)Nc2cc(C(=O)Nc3ccc(S(=O)(=O)O)c4cc(S(=O)(=O)O)cc(S(=O)(=O)O)c34)ccc2F)c1

>  <Recorded value>
0.0032 ± 0.0001 s^−1

$$$$
>  <Molecule>
Cc1nc(/N=N/c2cc(S(=O)(=O)O)ccc2S(=O)(=O)O)c(COP(=O)(O)O)c(C=O)c1O

>  <Recorded value>
0.0015 ± 0.0001 s^−1

$$$$

###

Below, each of the compounds is paired with its reported Ki value.
Target: human Mcm10 internal domain (hMcm10-ID) (Homo sapiens)
Construct: hMcm10-ID (residues 237 to 436) were expressed in E. coli strain BL21(DE3); 6xHis (HRV 3C site) (N, cleaved yes); made in house; host or cells: E. coli BL21(DE3)
Sequence (Q7L590 237-436): as above
Experiment: Fluorescence polarization competition assay, displacement of 5′-6FAM 10-mer ssDNA probe from hMcm10-ID
Format: binding
Conditions: mean ± s.e.m., n ≥ 3; hMcm10-ID 1 μM, probe 12.5 nM
Structures can show the parent of a compound that is named as a salt.

>  <Compound>
O=C(Nc1cccc(C(=O)Nc2ccc(S(=O)(=O)O)c3cc(S(=O)(=O)O)cc(S(=O)(=O)O)c23)c1)Nc1cccc(C(=O)Nc2ccc(S(=O)(=O)O)c3cc(S(=O)(=O)O)cc(S(=O)(=O)O)c23)c1

>  <Ki>
1800 nM

$$$$
>  <Compound>
O=C(Nc1cc(C(=O)Nc2ccc(S(=O)(=O)O)cc2S(=O)(=O)O)cc(C(=O)Nc2ccc(S(=O)(=O)O)cc2S(=O)(=O)O)c1)Nc1cc(C(=O)Nc2ccc(S(=O)(=O)O)cc2S(=O)(=O)O)cc(C(=O)Nc2ccc(S(=O)(=O)O)cc2S(=O)(=O)O)c1

>  <Ki>
440 nM

$$$$
>  <Compound>
Cc1ccc(C(=O)Nc2ccc(S(=O)(=O)O)c3cc(S(=O)(=O)O)cc(S(=O)(=O)O)c23)cc1NC(=O)c1cccc(NC(=O)Nc2cccc(C(=O)Nc3cc(C(=O)Nc4ccc(S(=O)(=O)O)c5cc(S(=O)(=O)O)cc(S(=O)(=O)O)c45)ccc3C)c2)c1 [suramin, suramin sodium salt]

>  <Ki>
830 nM

$$$$
>  <Compound>
O=C(Nc1cc(C(=O)Nc2ccc(S(=O)(=O)O)cc2)cc(C(=O)Nc2ccc(S(=O)(=O)O)cc2)c1)Nc1cc(C(=O)Nc2ccc(S(=O)(=O)O)cc2)cc(C(=O)Nc2ccc(S(=O)(=O)O)cc2)c1

>  <Ki>
2300 nM

$$$$
